Target: recombinant human IL-13 (human, UniProt P35225 35-146)
Sequence (P35225 35-146 limits assumed): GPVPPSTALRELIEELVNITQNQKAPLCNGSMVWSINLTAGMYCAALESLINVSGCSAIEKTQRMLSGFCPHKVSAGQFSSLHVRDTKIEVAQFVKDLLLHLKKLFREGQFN
Assay: cell-based or functional assay
Recorded HEK-IL-13 [nM] (IC50, STAT6 reporter) by entry
The reply should be a number in nM, with the unit left off.

HEK-IL-13 [nM] (IC50, STAT6 reporter) reported for this binder BDG38.091 (antibody, V domains shown, IgG1) VH: QMQLVESGGGVVQPGRSLTLSCAASGFEFRTYGMHWVRQAPGKGLEWLGVIWYDGSNTHYADSVKGRFTITRDNSKNTLNLQMNSLRVEDTAVYYCVRAPQWYLTAEAFDLWGQGTMVTVSS VL: SYILTQPPSVSVAPGETATITCGGNLIGSRLVHWYQQKPGQAPVLVIYDDSDRPSRIPERFSGSNIGNTATLTISDVEAGDEADYYCQVWDHYSNHYVFGGGTKLTVL : 0.0832

Continue with the binder presented below.
HEK-IL-13 [nM] (IC50, STAT6 reporter) reported for this binder BDG38.128 (antibody, V domains shown, IgG1) VH: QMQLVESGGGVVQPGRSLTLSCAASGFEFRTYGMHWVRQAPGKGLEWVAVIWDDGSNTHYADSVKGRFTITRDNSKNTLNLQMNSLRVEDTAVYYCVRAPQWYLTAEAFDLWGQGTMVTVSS VL: SYILTQPPSVSVAPGETATITCGGNLIGAKLVHWYQQKPGQAPVLVIYDDSDRPSRIPERFSGSNSGNTATLTISDVEEGDEADYYCQVWDYYADTMVFGGGTKLTVL : 0.0523
